Biological target: 5-HT2C receptor (Homo sapiens)
Construct: host or cells: U2OS
Sequence (P28335 33-458): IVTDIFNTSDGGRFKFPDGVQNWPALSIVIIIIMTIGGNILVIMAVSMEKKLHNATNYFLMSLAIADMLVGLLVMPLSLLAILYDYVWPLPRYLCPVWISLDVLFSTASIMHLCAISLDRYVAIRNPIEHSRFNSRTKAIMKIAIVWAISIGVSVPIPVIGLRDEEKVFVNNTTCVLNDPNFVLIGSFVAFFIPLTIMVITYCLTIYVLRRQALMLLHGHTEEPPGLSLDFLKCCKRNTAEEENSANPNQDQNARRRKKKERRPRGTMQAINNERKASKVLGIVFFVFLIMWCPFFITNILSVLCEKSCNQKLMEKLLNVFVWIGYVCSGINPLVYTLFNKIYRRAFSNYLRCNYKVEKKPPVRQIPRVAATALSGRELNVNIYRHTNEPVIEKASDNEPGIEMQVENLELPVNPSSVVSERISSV
Sequence (P32121 whole entry partner): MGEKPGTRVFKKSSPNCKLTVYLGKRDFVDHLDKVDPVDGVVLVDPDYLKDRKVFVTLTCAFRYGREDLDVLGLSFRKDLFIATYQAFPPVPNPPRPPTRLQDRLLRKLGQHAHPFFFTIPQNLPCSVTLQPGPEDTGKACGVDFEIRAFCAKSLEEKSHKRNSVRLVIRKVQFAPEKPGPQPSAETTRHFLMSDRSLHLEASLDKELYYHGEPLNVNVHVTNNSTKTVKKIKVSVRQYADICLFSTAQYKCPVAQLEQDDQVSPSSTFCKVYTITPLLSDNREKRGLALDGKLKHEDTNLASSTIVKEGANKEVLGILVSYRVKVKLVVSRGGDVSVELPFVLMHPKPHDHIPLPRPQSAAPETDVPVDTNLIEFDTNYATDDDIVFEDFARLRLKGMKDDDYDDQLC
Assay: Human 5-HT2C functional assay (beta-arrestin2 recruitment, U2OS_HTR2C_β-Arrestin cells)
Format: cell-based
Conditions: Potency (EC50 5-HT2C) in functional assay; agonism; read-out: EC50 5-HT2C
pEC50: −log10 of the molar value.
ENDPOINT NAME: pEC50

## Input So what's the measured pEC50 for this one? COC[C@@H]1C[C@@H]2CNCCN2c2c(F)c(F)cc(C(F)F)c2O1.Cl [Example 26, hydrochloride]
## Output > 7.70

## Input So what's the measured pEC50 for this one? COC[C@@H]1C[C@@H]2CNCCN2c2c(F)c(F)cc(C#N)c2O1.Cl [Example 28, hydrochloride]
## Output 6.70 to 7.70

## Input Value lookup for pEC50; key = COC[C@@H]1C[C@@H]2CNCCN2c2cc(C(F)(F)F)cc(Cl)c2O1
## Output 6.70 to 7.70

## Input Query: pEC50; subject: COC[C@@H]1C[C@@H]2CNCCN2c2cc(F)cc(C)c2O1.Cl [Example 41, hydrochloride]
## Output > 7.70

Just for reference, patent US20200002354A1 is where these values come from.
